Data provenance: patent US20210284747A1

Target: Full length LIGHT R189A on HEK293FF cells (Homo sapiens (Human), UniProt O43557 1-240)
Sequence (O43557 whole entry R189A): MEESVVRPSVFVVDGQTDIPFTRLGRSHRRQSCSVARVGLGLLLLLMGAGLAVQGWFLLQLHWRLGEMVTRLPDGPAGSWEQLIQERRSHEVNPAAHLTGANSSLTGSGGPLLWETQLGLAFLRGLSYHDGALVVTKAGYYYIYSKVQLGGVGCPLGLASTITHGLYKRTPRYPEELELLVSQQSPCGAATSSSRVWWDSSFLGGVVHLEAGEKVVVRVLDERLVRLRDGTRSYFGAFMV
Experiment: flow cytometry, HEK293FF, mAb at EC50

{"columns": ["binder", "% of WT binding"],
 "data": [
  ["3E09 chimeric IgG4 mAb (antibody, V domains shown, Chimeric human IgG4 (S-to-P, L-to-E) with human CL, as m1; also called Parental 3E09) VH: EVQLVESGGGLVKPGGSLKLSCEASGFTFSDYYMYWVRQTPEKRLEWVAAIGDGGIYTYYADTVKGRFTISRDNAKNILYLQMSSLKSNDTAMYYCARGTGDGFAYWGQGTLVTVS VL: DIVLTQSPASLAVSLGQRATISCRASESVDSYGNSFMHWYQQKPGQPPKLLIYLASNLESGVPARFSGSGSRTDFTLTIDPVEADDAATYYCQQNNEDPYTFGGGTKLEIK", "1%"]
]}
